# System: Preadipocytes (PromoCell)
# protocol_text: alamar blue cell viability assay (adipocytolytic potential), preadipocytes
# Type: cell-based
# condition_info: viability, 48 hrs; read-out: IC50 [µM] Pre-ad ipocytes
observed_property: IC50 (µM)
Field format: number, assumed µM, no unit text.

compound	observed_property	readout_value
C[C@H](CCC(=O)O)[C@H]1CC[C@H]2[C@@H]3CC[C@@H]4C[C@H](O)CC[C@]4(C)[C@H]3C[C@H](O)[C@]12C [Deoxycholic acid]	IC50	232

**Query** # return recorded IC50 for entry CC[C@H]1[C@@H](O)[C@@H]2[C@H](CC[C@]3(C)[C@@H]([C@H](C)CCC(=O)O)CC[C@@H]23)[C@@]2(C)CC[C@@H](O)C[C@@H]12 [Obeticholic acid]
**Result** 87.2
